The origin of these recorded values is PubChem BioAssay AID624330.

- Assayed Target: Rac GTPase-activating protein 1 (Homo sapiens)
- Assay Details: blockers of MgcRacGAP-driven Rac1 GTP hydrolysis – biochemical, ADP Hunter fluorescence, primary and confirmatory, confirmation (AID 624330);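 also: fluorescence reports GDP produced by GAP-driven GTP hydrolysis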
- Measurement Setup: MgcRacGAP-stimulated Rac1 GTP hydrolysis, at 30 µM, active compounds read high, GST-tagged Rac1 F28L mutant substrate
Hit rate of the full screen: of about 340,000 compounds, about 2,100 (0.62%) were called active. Only a sample is shown. Results with a measured potency or affinity are listed apart.
Measurement Type: inhibition (%)
Give bare numbers, in %.

Please give inhibition for each item listed below.
1. COC(=O)CCNC(=O)Cn1cnc2sc3c(c2c1=O)CCCC3
2. CC(OC(=O)Cc1ccsc1)C(=O)Nc1ccc(C(N)=O)cc1 (stereo not given)
3. CC(NC(=O)c1ccc(Br)o1)c1ccccc1 (stereo not given)
4. CCCC(=O)Nc1ccc(Nc2ccccc2)cc1
5. Nc1ccc(CCc2ccccn2)cc1

3.18
2.18
7.96
22.6
-1.15
